tested on: SW-620; assay: NCI tumour cell line growth inhibition, 48 h
Activity calls are given as the source filed them. Rule as the data show it: active = GI50 up to about 1.1 µM and inactive = higher.
Classes used: active, inactive

Compound: CO[P@@]1(=O)O[C@@H](c2ccccc2)[C@H](O)[C@@]1(O)c1ccccc1
Assayed target: SW-620
Discrete label: inactive
//
Compound: COC(=O)C1=C(C(=O)OC)C(OO)(c2ccccc2)OC1=O (stereo not given)
Assayed target: SW-620
Discrete label: inactive
//
Compound: O=C(NC1CCCCC1)c1nn[nH]c1Cl
Assayed target: SW-620
Discrete label: inactive
//
Compound: O=C1O[C@@H](c2ccc3c(c2)OCO3)C2C(=O)O[C@@H](c3ccc4c(c3)OCO4)C12 (stereo not given in full)
Assayed target: SW-620
Discrete label: inactive
//
Compound: CCOC(=O)CCCN
Assayed target: SW-620
Discrete label: inactive
//
Compound: O=C(NCc1ccccc1)c1nn[nH]c1O
Assayed target: SW-620
Discrete label: inactive
//
Compound: O=C1Nc2cccc3ncn(c23)C2=C1CCCC2
Assayed target: SW-620
Discrete label: inactive
//
Compound: O=C(C/N=C(\CN(c1ccccc1)c1ccccc1)Oc1c([N+](=O)[O-])cc([N+](=O)[O-])cc1[N+](=O)[O-])N1CCNCC1
Assayed target: SW-620
Discrete label: inactive
//
Compound: CCCCCCNCCCNc1c2ccccc2nc2cccc([N+](=O)[O-])c12
Assayed target: SW-620
Discrete label: active
//
Compound: CC1(N2CCOCC2)CC2C(=[N+]1[O-])CCC/C2=N/O (stereo not given)
Assayed target: SW-620
Discrete label: inactive
//
Compound: OCC1C(OCc2ccccc2)C(OCc2ccccc2)C(OCc2ccccc2)CN1Cc1ccccc1 (stereo not given)
Assayed target: SW-620
Discrete label: inactive
//
Compound: CN1C2CCC1CC(CC(=O)NC(c1ccc(F)cc1)c1ccc(F)cc1)C2 (stereo not given)
Assayed target: SW-620
Discrete label: inactive
//
Compound: COc1ccc(/N=N/c2ccc3oc(=O)c(C(=O)Nc4ccc(OC)cc4)cc3c2)cc1
Assayed target: SW-620
Discrete label: inactive
//
Compound: O=C(O)CCNc1[nH]cnc2ncnc1-2
Assayed target: SW-620
Discrete label: inactive
//
Compound: COc1ccc(NC(=O)CC(=O)n2nc(C)c(/N=N/c3ccc(C)c(C)c3)c2C)cc1
Assayed target: SW-620
Discrete label: inactive
//
Compound: O=c1c2ccccc2[nH]c(=S)n1-c1ccc(/N=N/c2cccc3c(O)cccc23)cc1
Assayed target: SW-620
Discrete label: inactive
//
Compound: CCOC(=O)CN(CC)C(=O)NC12CC3CC(CC(C3)C1)C2
Assayed target: SW-620
Discrete label: inactive
//
Compound: CC(C)(C)c1cc2c(O)c(c1)Cc1cc(C(C)(C)C)cc(c1O)Cc1cc(C(C)(C)C)cc(c1O)Cc1cc(C(C)(C)C)cc(c1O)Cc1cc(C(C)(C)C)cc(c1O)Cc1cc(C(C)(C)C)cc(c1O)Cc1cc(C(C)(C)C)cc(c1O)Cc1cc(C(C)(C)C)cc(c1O)C2
Assayed target: SW-620
Discrete label: inactive
//
Compound: CC1=Nc2c(O)nc(S)nc2NC(c2ccc(Cl)c(Cl)c2)C1 (stereo not given)
Assayed target: SW-620
Discrete label: inactive
//
Compound: O=C(O)Cc1ccc2c(c1O)C(=O)c1c(ccc(CC(=O)O)c1O)C2=O
Assayed target: SW-620
Discrete label: inactive
